System: HCT116 cells
ASSAY DETAILS: Combined use of compound 257, AMG650 or Compound A with PLK1 inhibitor on HCT116 cell viability, 168 h (Biological Example 20)
Assay type: cell-based
CONDITIONS: HCT116 cells, CYC140 (Plogosertib) 1.6 nM
pIC50: −log10 of the molar value.
ATTRIBUTE MEASURED: pIC50

                                 smiles_str  readout_value
0  CCS(=O)(=O)Nc1ccc2c(c1)C1(CCC3(CC3)CC1)CN2C(=O)c1cccc(S(=O)(=O)NC(C)(C)C)c1         < 6.40
1  Cc1cc(NC(=O)c2ccc(NS(=O)(=O)CCO)cc2N2CCC3(CC2)CC3)nc(N2CCC(F)(F)CC2)n1         < 6.40
2  COc1ccc(NC(=O)c2ccc(NS(=O)(=O)CCO)cc2N2CCC3(CC2)CC3)nc1N1CCC(F)(F)CC1         < 6.40
